Hey, just so you know, these numbers are from paper PMC6385246.

TARGET OF ASSAY: RiCBM23 (Roseburia intestinalis)
PROTOCOL DETAILS: SPR (Biacore T100, CBM immobilized on NTA chip)
CONDITION LABEL: 25 °C, 20 mM phosphate/citrate pH 6.5, 150 mM NaCl
Description: SPR (Biacore T100, CBM immobilized on NTA chip) on RiCBM23
READOUT TYPE: Kd (µM)
Expressed in µM, but write only the number.

COMPOUND: OC[C@H]1O[C@@H](O[C@H]2[C@H](O)[C@H](O)[C@H](O[C@H]3[C@H](O)[C@H](O)[C@H](O[C@H]4[C@H](O)[C@H](O)[C@H](O[C@H]5[C@H](O)[C@H](O)[C@H](O[C@H]6[C@H](O)[C@H](O)C(O)O[C@@H]6CO)O[C@@H]5CO)O[C@@H]4CO)O[C@@H]3CO)O[C@@H]2CO)[C@@H](O)[C@@H](O)[C@@H]1O (stereo partly shown)
Kd / µM: 205
--
COMPOUND: OC[C@H]1O[C@@H](O[C@H]2[C@H](O)[C@H](O)[C@H](O[C@H]3[C@H](O)[C@H](O)C(O)O[C@@H]3CO)O[C@@H]2CO)[C@@H](O)[C@@H](O)[C@@H]1O (stereo partly shown)
Kd / µM: 230
--
COMPOUND: OC[C@H]1O[C@@H](O[C@H]2[C@H](O)[C@H](O)[C@H](O[C@H]3[C@H](O)[C@H](O)[C@H](O[C@H]4[C@H](O)[C@H](O)C(O)O[C@@H]4CO)O[C@@H]3CO)O[C@@H]2CO)[C@@H](O)[C@@H](O)[C@@H]1O (stereo partly shown)
Kd / µM: 130

Now for the compound whose Kd we want.
Missing value: Kd, RiCBM23 (Roseburia intestinalis), entry OC[C@H]1O[C@@H](O[C@H]2[C@H](O)[C@H](O)[C@H](O[C@H]3[C@H](O)[C@H](O)[C@H](O[C@H]4[C@H](O)[C@H](O)[C@H](O[C@H]5[C@H](O)[C@H](O)C(O)O[C@@H]5CO)O[C@@H]4CO)O[C@@H]3CO)O[C@@H]2CO)[C@@H](O)[C@@H](O)[C@@H]1O (stereo partly shown) . Fill in?
198

====

Below: a set of entries, each annotated with reported Kd.
TARGET OF ASSAY: RiMnBP (Roseburia intestinalis, UniProt C7G6G6)
Sequence (C7G6G6 23-489): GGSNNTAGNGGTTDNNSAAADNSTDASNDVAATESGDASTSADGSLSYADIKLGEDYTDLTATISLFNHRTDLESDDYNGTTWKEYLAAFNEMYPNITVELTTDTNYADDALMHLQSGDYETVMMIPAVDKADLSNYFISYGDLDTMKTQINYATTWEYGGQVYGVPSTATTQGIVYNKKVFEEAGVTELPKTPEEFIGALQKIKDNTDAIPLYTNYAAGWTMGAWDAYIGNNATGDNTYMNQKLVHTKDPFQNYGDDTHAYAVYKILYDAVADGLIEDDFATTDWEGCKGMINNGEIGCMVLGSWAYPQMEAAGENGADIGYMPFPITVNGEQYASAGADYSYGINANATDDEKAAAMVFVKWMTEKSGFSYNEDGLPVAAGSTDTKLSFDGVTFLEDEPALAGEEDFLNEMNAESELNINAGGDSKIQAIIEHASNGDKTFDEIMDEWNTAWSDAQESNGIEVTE
Expressed in µM, but write only the number.

COMPOUND: OC[C@H]1O[C@@H](O[C@H]2[C@H](O)[C@H](O)[C@H](O[C@H]3[C@H](O)[C@H](O)[C@H](O[C@H]4[C@H](O)[C@H](O)C(O)O[C@@H]4CO)O[C@@H]3CO)O[C@@H]2CO)[C@@H](O)[C@@H](O)[C@@H]1O (stereo partly shown) [M4, mannotetraose]
TARGET OF ASSAY: RiMnBP (Roseburia intestinalis, UniProt C7G6G6)
READOUT TYPE: Kd
MEASURED NUMBER: 3.89
--
COMPOUND: OC[C@H]1O[C@@H](O[C@H]2[C@H](O)[C@H](O)[C@H](O[C@H]3[C@H](O)[C@H](O)[C@H](O[C@H]4[C@H](O)[C@H](O)[C@H](O[C@H]5[C@H](O)[C@H](O)[C@H](O[C@H]6[C@H](O)[C@H](O)C(O)O[C@@H]6CO)O[C@@H]5CO)O[C@@H]4CO)O[C@@H]3CO)O[C@@H]2CO)[C@@H](O)[C@@H](O)[C@@H]1O (stereo partly shown) [M6, mannohexaose]
TARGET OF ASSAY: RiMnBP (Roseburia intestinalis, UniProt C7G6G6)
READOUT TYPE: Kd
MEASURED NUMBER: 33.8
--
COMPOUND: OC[C@H]1O[C@@H](O[C@H]2[C@H](O)[C@H](O)[C@H](O[C@H]3[C@H](O)[C@H](O)C(O)O[C@@H]3CO)O[C@@H]2CO)[C@@H](O)[C@@H](O)[C@@H]1O (stereo partly shown) [M3, mannotriose]
TARGET OF ASSAY: RiMnBP (Roseburia intestinalis, UniProt C7G6G6)
READOUT TYPE: Kd
MEASURED NUMBER: 2.62

Now for the compound whose Kd we want.
Param item = OC[C@H]1O[C@@H](O[C@H]2[C@H](O)[C@H](O)[C@H](O[C@H]3[C@H](O)[C@H](O)[C@H](O[C@H]4[C@H](O)[C@H](O)[C@H](O[C@H]5[C@H](O)[C@H](O)C(O)O[C@@H]5CO)O[C@@H]4CO)O[C@@H]3CO)O[C@@H]2CO)[C@@H](O)[C@@H](O)[C@@H]1O (stereo partly shown) [M5, mannopentaose] ; retrieve measured Kd.
2.55
